# Tested system: PKC-θ KD (Homo sapiens, UniProt Q04759)
# Construct: PKC-θ KD (amino acid residues 362 to 706) was cloned into a pET16b expression vector; hexa-histidine (C); Met-Gly (non-native N-terminal residues) (N); made in house; host or cells: E. coli BL21-DE3 (pET16b)
# Sequence (Q04759 with tags, fused parts or gaps): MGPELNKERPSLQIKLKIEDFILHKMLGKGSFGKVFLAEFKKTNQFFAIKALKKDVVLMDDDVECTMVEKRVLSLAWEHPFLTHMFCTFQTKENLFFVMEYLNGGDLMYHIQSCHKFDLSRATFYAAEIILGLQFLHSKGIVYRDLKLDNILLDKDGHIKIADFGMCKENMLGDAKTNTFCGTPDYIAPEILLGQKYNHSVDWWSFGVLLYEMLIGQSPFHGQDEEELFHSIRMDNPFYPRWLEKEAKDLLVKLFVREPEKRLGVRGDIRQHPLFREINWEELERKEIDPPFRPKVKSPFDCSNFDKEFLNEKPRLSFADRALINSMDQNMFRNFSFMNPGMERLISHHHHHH
# Test name: HPLC assay: thio effect with ATPγS and product inhibition with ADP
# Format: biochemical
# Assay setup: product inhibition, varied substrate ATP, saturating peptide 1, 100 mM NaCl; read-out: Kis
pKi: −log10 of the molar value.
Quantity measured: pKi

> print(dat)
                  compound.structure.string  readout.value
1  Nc1ncnc2c1ncn2[C@@H]1O[C@H](COP(=O)(O)OP(=O)(O)O)[C@@H](O)[C@H]1O           3.54
